Measured values drawn from paper PMC4986100 for this set.

# Tested on: MCF-7 cells
# Assay Explanation: MTT cytotoxicity assay
# Assay type: cell-based, human
# Experimental Parameters: 10 µM compound, 48 h exposure, MTT
Hi! Just check whether Survival (%) of MCF-7 cells is below 40%. Below gives 1, equal or above gives 0.

Reference set, count: 4
>  <Smiles Entry>
CS(=O)(=O)c1ccc(-c2cc(Cn3ccnc3)c3ccc4c(c3n2)CCCC4)cc1

>  <Class Name>
1

$$$$
>  <Smiles Entry>
CS(=O)(=O)c1ccc(-c2cc(Cn3ccnc3)c3cccc(-c4ccccc4)c3n2)cc1

>  <Class Name>
1

$$$$
>  <Smiles Entry>
CS(=O)(=O)c1ccc(-c2cc(Cn3ccnc3)c3ccc4ccccc4c3n2)cc1

>  <Class Name>
0

$$$$
>  <Smiles Entry>
CS(=O)(=O)c1ccc(-c2cc(Cn3ccnc3)c3ccccc3n2)cc1

>  <Class Name>
0

$$$$

Could you now look at the following compound, please?
(Q) Determine whether this compound shows Survival (%) of MCF-7 cells lower than 40% (ties excluded): Cc1ccc2c(Cn3ccnc3)cc(-c3ccc(S(C)(=O)=O)cc3)nc2c1C
(A) 0
